- Test system: SK-MEL-5
- assay_details: NCI tumour cell line growth inhibition, 48 h
Calls of active or inactive are those of the source. Cut-off read from the data, not from the text of the source: active = GI50 up to about 1.1 µM and inactive = higher.
metric_name: GI50

Nc1nc(=O)c2c([nH]1)NCC(CNc1ccc(C(=O)N[C@@H](CCC(=O)O)C(=O)O)cc1)N2C=O (stereo not given in full) [LEUCOVORIN CALCIUM] : > 125 µM (inactive)
Cn1c(=O)c2c(nc3sc4ccccc4c(=O)n32)n(C)c1=O : > 100 µM (inactive)
CSc1cnn(CCC#N)c(=O)n1 : 26.4 µM (inactive)
O=C(O)CCc1c2ccc(=O)c(O)c-2oc2c(O)c(O)ccc12 : > 100 µM (inactive)
O=C(/C=C1/Nc2ccc([N+](=O)[O-])cc2N/C1=C/C(=O)c1ccccc1)c1ccccc1 : 38 µM (inactive)

Given the molecule COC(c1ccsc1)C(C#N)(C#N)/N=C/c1ccsc1 (stereo not given) , what is its reported GI50? 13.6 µM (inactive)

Also, CC[C@@H]([C@H](O)c1ccccc1Cl)[N+](=O)[O-] please. > 100 µM (inactive)

Also, O=C(O)c1c(-c2ccccc2)c(=O)[nH]c2ccccc12 please. > 100 µM (inactive)

Also, CCCCCCCCCCCCCCCCCCOC(COP(=O)(O)OCC1OC(n2cc(F)c(=O)[nH]c2=O)CC1O)COP(=O)(O)OCC1OC(n2ccc(N)nc2=O)C(O)C1O (stereo not given) please. > 73.5 µM (inactive)

Also, CC#COP(=O)(OCC)OCC please. > 100 µM (inactive)
